- MEASUREMENT DESCRIPTION: ATG_CMV_CIS: Attagene CIS-FACTORIAL HepG2 Assay for human CMV (Internal Marker) (AID 2282928);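 also: endpoint acts as a background internal control marker rather than a target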
- CONDITION INFO: HepG2 CMV promoter reporter, transcription factor profiling; actives raise or lower the signal
- Procedure: ATG_CIS is a cell-based, multiplexed-readout assay that uses HepG2, a human liver cell line, with measurements taken at 24 hours after chemical dosing in a 24-well plate.ATG_CMV_CIS is one of 52 assay component(s) measured or calculated from the ATG_CIS assay. […] This assay endpoint, ATG_CMV_CIS, was analyzed with bidirectional fitting relative to DMSO as the negative control and baseline of activity. […]
The source made the active and inactive calls. The calls were made as follows: active = hit-call score of the fitted dose curve at least 0.9, where 1 is the maximum; inactive = score below 0.9.
Would you mind answering with one of these outcomes? T for active, F for inactive

For orientation, consider the following solved cases.
{"MOLECULE": "C=C(C)C(=O)OCCC[Si](OC)(OC)OC", "CAT": "F"}
{"MOLECULE": "CCCCOC(=O)C(C)OC(=O)CCC (centres undefined)", "CAT": "F"}
{"MOLECULE": "Cc1cccc(C)c1", "CAT": "F"}
{"MOLECULE": "COc1ccc2[nH]cc(CCNC(C)=O)c2c1", "CAT": "F"}

Which outcome was assigned to CCCCCCCCCCCCS in this test?
F

Tell me the assay call for CC(C)(C)c1cccc(O)c1 please.
F

How did this test come out for CC(=O)c1ccc(O)cc1 ?
F

Test call for this molecule, please: [Na+]
F

// outcome(item) with item = CCOC(=O)COC(=O)c1ccccc1C(=O)OCC
F

Record request — test call for c1ccc(OCCOc2ccccc2)cc1
F
